We begin with a simple list: items and their reported binding ratio vs native type.
Target Or System: T1, human SPNS2 K136A mutant (human, UniProt Q8IVW8 1-549)
T1 sequence: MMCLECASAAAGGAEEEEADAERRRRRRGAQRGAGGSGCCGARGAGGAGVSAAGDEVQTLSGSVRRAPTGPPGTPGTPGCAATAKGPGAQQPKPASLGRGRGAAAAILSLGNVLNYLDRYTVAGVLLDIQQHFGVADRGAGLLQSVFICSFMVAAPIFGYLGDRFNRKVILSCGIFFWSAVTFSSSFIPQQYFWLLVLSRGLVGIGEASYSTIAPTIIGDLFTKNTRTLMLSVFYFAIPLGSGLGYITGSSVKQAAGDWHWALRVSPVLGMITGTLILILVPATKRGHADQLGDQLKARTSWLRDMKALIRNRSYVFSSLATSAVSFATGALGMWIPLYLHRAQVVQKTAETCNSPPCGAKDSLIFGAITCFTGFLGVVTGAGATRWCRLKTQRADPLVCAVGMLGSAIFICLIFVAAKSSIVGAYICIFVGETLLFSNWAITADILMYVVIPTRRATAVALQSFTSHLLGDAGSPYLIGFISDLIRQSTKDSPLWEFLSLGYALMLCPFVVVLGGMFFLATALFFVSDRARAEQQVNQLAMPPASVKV
Protocol Notes: flow cytometry

{"Binder": "64-0807A (antibody, IgG2b, V domains shown) VH: EVQVVESGGGLVQPGRSMKLSCAALGFTFRDYYMAWVRQTPTKGLEWVAAISTGGGNTYYRDSVKGRFTISRDNAKSTLYLQMDSLRSDDTATYYCARNPYGNYFDYWGQGVMVTVSS VL: QFVLSQPNSVSTNLGSTVKLSCKRSTGNIGSNYVHWYQRHEGRSPTTLIYRDDKRPNGVPDRFSGSIDRSSNSALLTINNVQTEDEADYFCQSYSGGMYLFGGGTKLTVL", "Test Result": "< 0.5 ratio"}

For the next question, use this binder.
QUERY: What value of binding ratio vs native type has been recorded for this entry: 49-0703G (antibody, IgG2b, V domains shown) VH: EVQLVESGGGLVQPGRSMKLSCAASGFTFSNHYMAWVRQAPTKGLEWVASISTGGGNTYYRDSVKGRFTISRDNAKSTLYLQMDSLRSEDTATYYCARQDYSNYMGGFAYWGQGTLVTVSS VL: QFVLTQPNSVSTNLGSTVKLSCKRSTGNIGNNYVNWYQQYEGRSPTTMIYRDDERPDGVPDRFSGSIDRSSNSALLTINNVQTEDEADYFCQSFSNGMFIFAGGTQLTVL
RESULT: < 0.5 ratio
